- System: G-401
- procedure summary: cells
- condition parameters: Homo sapiens, G-401, 72 h
endpoint name: EC50 (nM)
Answers are plain numbers, in nM.

compound: C=CC(=O)Nc1cccc(CN2C(=O)N(c3c(Cl)c(OC)cc(OC)c3Cl)Cc3cnc(NCCCCN(CC)CC)nc32)c1
EC50, nM: 140

Inquiry: For the compound CCN(CC)CCCCNc1ncc2cc(-c3cc(OC)cc(OC)c3)c(NC(=O)NC(C)(C)C)nc2n1 [PD173074, reference compound] , what EC50 is on record?
Reply text: 210
